This section presents compounds with their documented Lowest concentration with significant (p ≤ 0.05) inhibition of lysosomal activity (NRU) values.
# Test system: Balb/c 3T3 cells
# TEST NAME: NRU assay (lysosomal activity), Balb/c 3T3
# Assay type: cell-based, mouse
# COND: Balb/c 3T3, 72 h, vs negative control 0.1% DMSO
# Description: Data obtained from the measurement of the optical density in these assays were transformed to percentages in relation to the control group, considered to be 100% for the MTT, NRU, and TPC assays and 0% for the LDH assay (Figure 1). […] The concentration ranges of compounds were chosen according to their solubility and their plasma level. […] Cytotoxicity was assessed after 72 h of exposure of the cells to the compounds. […] The results of the tests were expressed as a mean ± SD. […]
OUTCOME MEASURE: Lowest concentration with significant (p ≤ 0.05) inhibition of lysosomal activity (NRU)

>  <COMPOUND>
O=[N+]([O-])[O-].OCc1ccncc1.OCc1ccncc1.[Ag+] [Silver(I) + 4-hydroxymethylpyridine, [(4-hydroxymethylpyridine)2Ag]NO3]

>  <REPORTED RESULT>
0.98 µM

$$$$
>  <COMPOUND>
Cc1ncc([N+](=O)[O-])n1CCO.Cc1ncc([N+](=O)[O-])n1CCO.O=[N+]([O-])[O-].[Ag+] [Silver(I) + metronidazole, [(Metronidazole)2AgNO3]]

>  <REPORTED RESULT>
3.0 µM

$$$$
>  <COMPOUND>
OCc1ccncc1 [4-hydroxymethylpyridine]

>  <REPORTED RESULT>
7.0 µM

$$$$
>  <COMPOUND>
O=[N+]([O-])[O-].[Ag+] [Silver nitrate]

>  <REPORTED RESULT>
2.2 µM

$$$$
